Below is a list of entries, each paired with its recorded TGI value.
test system: NCI-H460 lung; experiment: NCI tumour cell line growth inhibition, 48 h

- Compound: "C=C1[C@@H](O)O[C@H]2[C@H]1C[C@H](OC(C)=O)[C@]13C(=O)O[C@H]4C[C@](C)(O)[C@H]([C@H]41)C31C=C(C)[C@]2(O)O1"
  Comparator: "="
  TGI, µM: 96.9
- Compound: "CCN1C(=O)N(CC)C2C1NN=c1s/c(=C\\c3ccc(F)cc3)c(=O)n12 (centres undefined)"
  Comparator: ">"
  TGI, µM: 100
- Compound: "CC(=O)O[C@@H]1C[C@@]2(C)[C@@H]3CC=C4[C@@H](C[C@H](O)C(=O)C4(C)C)[C@]3(C)C(=O)C[C@]2(C)[C@H]1[C@@](C)(O)C(=O)/C=C/C(C)(C)OC(C)=O"
  Comparator: "="
  TGI, µM: 16.3
- Compound: "Fc1ccc(/C=N/n2c(-c3ccc(F)c(Cl)c3)n[nH]c2=S)cc1"
  Comparator: "="
  TGI, µM: 38.3

The reported measurements were obtained from PubChem BioAssay (NCI).
